Biological target: HLA-A*31:01
Experiment: IEDB peptide-MHC binding, purified MHC/competitive/fluorescence; filed as Kd, often an IC50 or EC50 that approximates it; bounds were set here for any values at or beyond the usual limits of such assays
Conditions: source organism: Vibrio parahaemolyticus AQ3810
observation_type: Kd (nM)
Note: unit nM is implicit; provide only the numeric part.

Task: API: value(readout=Kd, system=HLA-A*31:01) for record HFIYHKREK
Output: 18.8

###

Below, each entry is listed alongside its reported Kd.
Target: HLA-A*02:06
Assay: IEDB peptide-MHC binding, purified MHC/competitive/radioactivity; filed as Kd, often an IC50 or EC50 that approximates it; bounds were set here for any values at or beyond the usual limits of such assays
Settings: source organism: Lymphocytic choriomeningitis virus (strain Armstrong)
Note: unit µM is implicit; provide only the numeric part.

FMLNVSYLC    0.932

The record that follows has no Kd shown yet.
Task: Consider the sequence shown here: GTMPSLTMAC What is its recorded Kd?
Output: 12.1

###

Target: HLA-B*18:01
Experiment: IEDB peptide-MHC binding, purified MHC/direct/fluorescence; filed as Kd, often an IC50 or EC50 that approximates it; bounds were set here for any values at or beyond the usual limits of such assays
Conditions: source organism: Giardia lamblia ATCC 50803
pKd: −log10 of the molar value.
observation_type: pKd

Task: Consider the sequence shown here: RIGGVLIFR What is its recorded pKd?
Output: ≤ 4.70

###

Target: HLA-A*69:01
Experiment: IEDB peptide-MHC binding, purified MHC/competitive/fluorescence; filed as Kd, often an IC50 or EC50 that approximates it; bounds were set here for any values at or beyond the usual limits of such assays
Conditions: source organism: Influenza A virus (A/Gf/HK/SSP607/2003(H9N2))
pKd: −log10 of the molar value.
observation_type: pKd

Task: API: value(readout=pKd, system=HLA-A*69:01) for record AMITYITRK
Output: ≤ 4.70

###

Molecular target: HLA-B*39:01
Test: IEDB peptide-MHC binding, purified MHC/competitive/fluorescence; filed as Kd, often an IC50 or EC50 that approximates it; bounds were set here for any values at or beyond the usual limits of such assays
Details: source organism: Zaire ebolavirus
pKd: −log10 of the molar value.
Below, each entry is listed alongside its reported pKd.

Known results for sequences:
DRLASTVIY    ≤ 4.70
GIVSSMHYK    ≤ 4.70

Task: API: value(readout=pKd, system=HLA-B*39:01) for record AENCYNLEI
Output: ≤ 4.70

###

Target: HLA-B*44:03
Experiment: IEDB peptide-MHC binding, purified MHC/competitive/radioactivity; filed as Kd, often an IC50 or EC50 that approximates it; bounds were set here for any values at or beyond the usual limits of such assays
Details: source organism: Dengue virus 1 Brazil/97-11/1997
observation_type: Kd (µM)
Note: unit µM is implicit; provide only the numeric part.

Task: API: value(readout=Kd, system=HLA-B*44:03) for record SEFNTYKRSG
Output: 7.05

###

Target: HLA-B*44:03
Assay: IEDB peptide-MHC binding, purified MHC/competitive/radioactivity; filed as Kd, often an IC50 or EC50 that approximates it; bounds were set here for any values at or beyond the usual limits of such assays
Details: source organism: Mammarenavirus juninense
observation_type: Kd

Task: API: value(readout=Kd, system=HLA-B*44:03) for record LDLVLLNLL
Output: ≥ 45.4 µM

###

Target: HLA-A*01:01
Assay: IEDB peptide-MHC binding, purified MHC/competitive/radioactivity; filed as Kd, often an IC50 or EC50 that approximates it; bounds were set here for any values at or beyond the usual limits of such assays
Settings: source organism: Mammarenavirus guanaritoense
observation_type: pKd
Give only the number. pKd is defined as minus log10 of concentration in molar units.

Task: Consider the sequence shown here: ELLSYCVSLF What is its recorded pKd?
Output: 6.58

###

Molecular target: HLA-A*68:02
Assay: IEDB peptide-MHC binding, purified MHC/competitive/fluorescence; filed as Kd, often an IC50 or EC50 that approximates it; bounds were set here for any values at or beyond the usual limits of such assays
Settings: source organism: Bacillus anthracis str. A2012
pKd: −log10 of the molar value.
observation_type: pKd

Task: Consider the sequence shown here: YFENSDLNL What is its recorded pKd?
Output: ≤ 4.70

###

Target: HLA-B*44:02
Assay: IEDB peptide-MHC binding, purified MHC/competitive/radioactivity; filed as Kd, often an IC50 or EC50 that approximates it; bounds were set here for any values at or beyond the usual limits of such assays
Conditions: source organism: Mammarenavirus guanaritoense
pKd: −log10 of the molar value.
observation_type: pKd

Task: Consider the sequence shown here: FEEALNVALA What is its recorded pKd?
Output: ≤ 4.15

###

Molecular target: HLA-A*02:06
Assay: IEDB peptide-MHC binding, purified MHC/competitive/radioactivity; filed as Kd, often an IC50 or EC50 that approximates it; bounds were set here for any values at or beyond the usual limits of such assays
Details: source organism: Vaccinia virus WR
observation_type: Kd (nM)
Note: unit nM is implicit; provide only the numeric part.

Known results for sequences:
AAVIIMAINV    446
IVSHLRASTT    173
QIFNIISYII    743
ILISLINSLV    151
YLYTEYFLFL    0.841
IQYRQQLEL    41.3
LTGTFVTAFI    413
EAFETQSGAL    15000

Task: Consider the sequence shown here: IVYGRSNAIL What is its recorded Kd?
Output: 424

Task: Another: CALVSDCAST
Output: 2600

Task: Another: IAVSVYGAI
Output: 1100

Task: Another: IAGGVCYYL
Output: 1410

Task: Another: ITDQTVNICI
Output: 10400

###

Target: HLA-B*44:03
Experiment: IEDB peptide-MHC binding, purified MHC/competitive/radioactivity; filed as Kd, often an IC50 or EC50 that approximates it; bounds were set here for any values at or beyond the usual limits of such assays
Conditions: source organism: Mammarenavirus lassaense
observation_type: Kd

Task: API: value(readout=Kd, system=HLA-B*44:03) for record DEILLDGGAS
Output: ≥ 25.9 µM

###

Target: HLA-C*04:01
Experiment: IEDB peptide-MHC binding, purified MHC/competitive/fluorescence; filed as Kd, often an IC50 or EC50 that approximates it; bounds were set here for any values at or beyond the usual limits of such assays
Conditions: source organism: Yersinia pestis Nepal516
pKd: −log10 of the molar value.
observation_type: pKd

Task: Consider the sequence shown here: VEMQLAVVI What is its recorded pKd?
Output: ≤ 5.30

###

Biological target: HLA-C*05:01
Assay: IEDB peptide-MHC binding, purified MHC/direct/fluorescence; filed as Kd, often an IC50 or EC50 that approximates it; bounds were set here for any values at or beyond the usual limits of such assays
Details: source organism: Pisum sativum
observation_type: Kd

Task: Consider the sequence shown here: YKACHNSEL What is its recorded Kd?
Output: ≥ 20 µM

###

Molecular target: HLA-B*40:01
Assay: IEDB peptide-MHC binding, purified MHC/competitive/radioactivity; filed as Kd, often an IC50 or EC50 that approximates it; bounds were set here for any values at or beyond the usual limits of such assays
Settings: source organism: Dengue virus 3 Martinique/1243/1999
observation_type: Kd (nM)
Note: unit nM is implicit; provide only the numeric part.

Task: Consider the sequence shown here: AEIPLQWIAS What is its recorded Kd?
Output: 2240

###

Target: HLA-A*68:01
Experiment: IEDB peptide-MHC binding, purified MHC/competitive/radioactivity; filed as Kd, often an IC50 or EC50 that approximates it; bounds were set here for any values at or beyond the usual limits of such assays
Conditions: source organism: Lymphocytic choriomeningitis virus (strain Armstrong)
observation_type: Kd

Task: API: value(readout=Kd, system=HLA-A*68:01) for record SCQGSDDIR
Output: ≥ 21.8 µM

###

Molecular target: HLA-A*11:01
Assay: IEDB peptide-MHC binding, purified MHC/competitive/radioactivity; filed as Kd, often an IC50 or EC50 that approximates it; bounds were set here for any values at or beyond the usual limits of such assays
Conditions: source organism: SARS coronavirus Tor2
observation_type: Kd (nM)
Note: unit nM is implicit; provide only the numeric part.

Known results for sequences:
GLVASIKNFK    1320
TLDESFLGR    669
TTGIGYQPYR    1140
ALNHTKKWK    5640
SQIQLSLLK    29.2

Task: Consider the sequence shown here: ALLRALRLTK What is its recorded Kd?
Output: 24.5

Task: Another: STGNYNYKY
Output: 198

Task: Another: LMNVITLVYK
Output: 23.7

Task: Another: GTSTDVVYR
Output: 17.9

Task: Another: LLFVVEVVDK
Output: 3050

###

Target: HLA-B*58:01
Assay: IEDB peptide-MHC binding, purified MHC/direct/fluorescence; filed as Kd, often an IC50 or EC50 that approximates it; bounds were set here for any values at or beyond the usual limits of such assays
Conditions: source organism: Mycobacterium tuberculosis variant bovis
observation_type: pKd
Give only the number. pKd is defined as minus log10 of concentration in molar units.

Task: API: value(readout=pKd, system=HLA-B*58:01) for record RDTAEAAKW
Output: 5.80
